tested on: C. elegans; experiment: microbe, parasite or virus in culture; settings: Caenorhabditis elegans, 24 h, read-out: Percentage of motility inhibition 24 h, Table S2, C. elegans SS assay, 110 μM, 24 h, averages of 4 data points
Counter-ions that a name gives are not always drawn.
Note to self: values exactly at 20% are 1. So inhibition at 110 µM at or above 20% is 1, below is 0.

Is it the case that CC(C)=CCc1c(O)ccc(C(=O)/C=C/c2ccc(O)cc2)c1O has inhibition at 110 µM reaching or exceeding 20%?
0

Answer whether inhibition at 110 µM of COc1ccc(-c2cc(=O)c3c(O)c(OC)c(O)cc3o2)cc1 is greater than or equal to 20%.
0

Does inhibition at 110 µM meet or surpass 20% for C=C1C(=O)[C@@]23[C@H](O)C[C@@H]4C(C)(C)CC[C@H](O)[C@@]4(CO)[C@@H]2CC[C@@H]1[C@H]3O ?
0

Quick check, inhibition at 110 µM >= 20%? COc1ccc2c3c1O[C@H]1C[C@@H](O)CC[C@]31CCN(C)C2
0

# bool: inhibition at 110 µM of COC(=O)C1=CC[C@@]23CC[C@@H]([C@@](C)(/C=C/C=C(\C)C(=O)O)OC2=O)[C@@]3(O)CC1 >= 20%
1

Say whether CC(=O)O[C@H]1C[C@@]2(C)[C@@H](C[C@@H](O)[C@H]3[C@@]4(C)CC[C@@H](O)[C@@H](C)[C@@H]4CC[C@@]32C)/C1=C(\CCC=C(C)C)C(=O)O shows inhibition at 110 µM of 20% or more.
0

Does the reported inhibition at 110 µM for CC1(C)S[C@@H]2[C@H](NC(=O)Cc3ccccc3)C(=O)N2[C@H]1C(=O)O [Penicillin G s odium salt] fall at or above the 20% mark?
1

I'd appreciate it if you could say whether O=[N+]([O-])C(Br)(CO)CO has inhibition at 110 µM at least equal to 20%.
1

Hi team, for C[C@@H]1O[C@@H](O[C@H]2CC[C@]3(C=O)[C@H]4CC[C@]5(C)[C@@H](C6=CC(=O)OC6)CC[C@]5(O)[C@@H]4CC[C@]3(O)C2)[C@H](O)[C@H](O)[C@H]1O , is the recorded inhibition at 110 µM at or above 20%?
0

Exam item: decide whether the reported inhibition at 110 µM for C[C@]1(OC(=O)/C=C/c2ccccc2)C[C@@H](O)[C@]2(O)C=CO[C@@H](O[C@@H]3O[C@H](CO)[C@@H](O)[C@H](O)[C@H]3O)[C@@H]21 [Harpagoside] is at least 20%.
1

Is reported inhibition at 110 µM greater than or equal to 20% here: C[C@@H]1O[C@@H](O[C@H]2[C@H](Oc3cc(O)c4c(c3)O[C@H](c3ccc(O)cc3)CC4=O)O[C@H](CO)[C@@H](O)[C@@H]2O)[C@H](O)[C@H](O)[C@H]1O
0

Confirm if inhibition at 110 µM reported for the molecule O=C(Nc1ccccc1F)N[C@H]1N=C(c2ccccc2)c2ccccc2NC1=O is 20% or above.
0

Kindly determine if inhibition at 110 µM recorded for CCN1C[C@]2(COC)[C@H](O)C[C@H](OC)[C@]34C1[C@H]([C@H](OC)[C@H]23)[C@@]1(OC(C)=O)C[C@H](OC)[C@@]2(O)C[C@@H]4[C@@H]1[C@H]2OC(=O)c1ccc(OC)cc1 is above or exactly 20%.
0

Reported inhibition at 110 µM reaches at least 20% for COc1c(OC)c2nccc3c4ccccc4n(c1=O)c23 ?
1
